For each of the binders below, state its OD450.
Biological target: T1, human CD22-ECD-His protein (human, UniProt P20273 20-687)
T1 construct: Made in house in HEK293E; also called hCD22-ECD-His; recombinant human CD22-ECD His protein; not shown: His tag
T1 sequence: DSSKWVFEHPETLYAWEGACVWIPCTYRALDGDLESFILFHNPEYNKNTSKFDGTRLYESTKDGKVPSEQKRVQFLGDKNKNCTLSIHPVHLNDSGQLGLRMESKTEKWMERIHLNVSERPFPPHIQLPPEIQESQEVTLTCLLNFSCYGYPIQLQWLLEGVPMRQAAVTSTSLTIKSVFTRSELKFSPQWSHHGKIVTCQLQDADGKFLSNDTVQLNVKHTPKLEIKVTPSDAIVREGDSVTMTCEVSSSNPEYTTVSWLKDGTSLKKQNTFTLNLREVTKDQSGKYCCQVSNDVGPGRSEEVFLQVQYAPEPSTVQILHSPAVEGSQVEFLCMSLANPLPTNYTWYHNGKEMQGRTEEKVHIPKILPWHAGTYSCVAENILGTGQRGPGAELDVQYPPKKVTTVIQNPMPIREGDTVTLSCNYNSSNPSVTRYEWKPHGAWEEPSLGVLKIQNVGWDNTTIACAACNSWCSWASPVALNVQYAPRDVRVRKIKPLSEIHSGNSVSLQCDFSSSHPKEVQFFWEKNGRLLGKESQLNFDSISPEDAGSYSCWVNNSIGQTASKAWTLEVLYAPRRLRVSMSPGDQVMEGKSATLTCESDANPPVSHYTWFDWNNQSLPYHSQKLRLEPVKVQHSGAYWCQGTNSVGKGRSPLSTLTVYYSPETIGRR
Assay: ELISA, Ab 0.00001 nM
Express it in OD450; write the number only.

Query: OD450; subject: F1.257.3 (antibody, human IgG1, kappa, V domains shown, Human-murine chimeric IgG1, kappa) VH: QVQLQQSGPELARPGASVKLSCKASGYTFTSYGISWVKQRTGQDLEWIGEIYPKLGTTYYNEKFKDKATLTTDRSSSTAYMALRSLTSEDSAVYFCACPHYYATRGGDYWGQGTTLTVSS VL: EIVLTQSPATLSVTPGDSVTFSCRASQSISNHLHWYQQKSHESPRLLIRYASQSISGIPSRFSGSGSGTDFTLSLSSVETEDFGVYFCQQSHSWPYTFGGGTKLEIAR
0.2

Query: OD450; subject: F2.70.2 (antibody, human IgG1, lambda, V domains shown, Human-murine chimeric IgG1, lambda) VH: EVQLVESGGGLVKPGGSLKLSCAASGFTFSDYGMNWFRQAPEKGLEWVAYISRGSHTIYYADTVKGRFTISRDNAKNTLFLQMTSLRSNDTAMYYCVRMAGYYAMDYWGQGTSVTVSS VL: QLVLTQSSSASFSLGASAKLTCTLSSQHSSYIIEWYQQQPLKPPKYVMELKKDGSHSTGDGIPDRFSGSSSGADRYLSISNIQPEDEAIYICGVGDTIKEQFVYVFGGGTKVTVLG
0.09

Query: OD450; subject: F1.224.1 (antibody, human IgG1, kappa, V domains shown, Human-murine chimeric IgG1, kappa) VH: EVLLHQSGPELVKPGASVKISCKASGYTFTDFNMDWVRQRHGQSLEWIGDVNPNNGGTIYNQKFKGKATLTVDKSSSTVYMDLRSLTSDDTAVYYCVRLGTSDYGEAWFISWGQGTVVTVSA VL: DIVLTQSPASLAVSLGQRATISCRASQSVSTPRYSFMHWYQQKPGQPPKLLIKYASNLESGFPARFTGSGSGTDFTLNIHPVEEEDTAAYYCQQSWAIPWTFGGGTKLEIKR
0.17

Query: OD450; subject: F1.161.7 (antibody, human IgG1, kappa, V domains shown, Human-murine chimeric IgG1, kappa) VH: QVQLQQPGAELVKPGASVKMSCKASGYTFTSYWISWVKQRPGQGLEWIGDIYPGTGSSNYNEKFKSKATLTVDTSSSTAYMQLSSLTSEDSAVYYCARLKFEGIGYWGQGTTLTVSS VL: QIVLTQSPAIMSASLGEEITLTCSASSSVSYMHWFQQKSGTSPKLLIYSISNLASGVPSRFSGSGSGTFYSLTISSVEAEDAADYYCHQWSSYPWTFGGGTKLEIKR
0.25

Query: OD450; subject: F1.280.1 (antibody, human IgG1, kappa, V domains shown, Human-murine chimeric IgG1, kappa) VH: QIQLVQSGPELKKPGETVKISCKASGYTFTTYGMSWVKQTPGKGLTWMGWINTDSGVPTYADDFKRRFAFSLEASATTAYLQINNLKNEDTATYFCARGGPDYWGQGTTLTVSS VL: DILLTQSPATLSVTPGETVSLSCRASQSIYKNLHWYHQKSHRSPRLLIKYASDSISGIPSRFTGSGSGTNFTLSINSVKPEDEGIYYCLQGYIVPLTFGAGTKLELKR
0.13

Query: OD450; subject: F1.120.15 (antibody, human IgG1, kappa, V domains shown, Human-murine chimeric IgG1, kappa) VH: QVQLQQSGPELVKPGASVKISCKASGNAFSNSWMNWVKQRPGKGLEWIGRVYSEDGDTQYNGKFRDKATLTADRSTSTAYMQLSSLTSEDSAVYFCARWLIYYGTYGAMDYWGQGTSVTVSS VL: DIQMTQTTSSLSASLGDRVTISCRASQDINNYLNWYHQKPDGTVKLLIYFTSRPYSGVPSRFSGSGSGTDYSLTISNLEQEDIATYFCQQGNTLPWTFGGGTKLEIKR
0.12

Query: OD450; subject: F2.180.16 (antibody, human IgG1, lambda, V domains shown, Human-murine chimeric IgG1, lambda) VH: EVKLVESGGGLVLPGGSLKISCAASGFTFSDYYMYWIRQTPDKRLEWVAYISNTGYSTFYPDSVKGRFTVSRDNAKNTLYLQMSRLQSEDTAMYYCARHGILYAMDYWGQGTSVTVSS VL: QPVLTQSSSASFSLGASAKLTCTLSSQYSTYTIGWYQQQPLKPPKYVMELKHDGSRHTGDGIPDRFSGSSSGADRYLSISNIQPEDEATYICGVGDTIKEQFMYVFGGGTKVTVLG
0.21

Query: OD450; subject: F2.55.1 (antibody, human IgG1, lambda, V domains shown, Human-murine chimeric IgG1, lambda) VH: QVTLKESGPGILQPSQTLSLTCSFSGFSLSTFPLGVGWIRQPSGKGLEWLAHVWWNDDDYYNPALKSRLTISKDTSNTRVFLSVASVDTAETATYYCARLNWDRWYFDVWGTGTTVTVSS VL: QLVLTQSSSASFSLGASAKLTCTLSSQHSAYTVEWYQQQPLKPPKYVMELKKDGSHSTGDGIPDRFSGSSSGADRYLSISNIQPEDEAIYICGVGDTVKEQFVFGGGTKVTVLG
0.16

Query: OD450; subject: F2.173.9 (antibody, human IgG1, lambda, V domains shown, Human-murine chimeric IgG1, lambda) VH: EVQLVESGGDLVKPGESLKLSCEASGFTFSNYAMSWVRQTPDRRLEWVATISSIGSFTYYSDSVKGRFTISRDNVKSTLHLQMNNLKSGDTAIYFCARLGVYFDSWGQGTTLTVSS VL: QLVLTQSSSASFSLGASAKLTCTLSSQHSTYTIEWYQQQPHKPPKFVMEIKKDGSHYTGDGIPDRFSGSSSGADRYLSISNIQPEDETIYICGVSDMIKDQFVYVFGGGTKVTVLG
0.18

Query: OD450; subject: F1.62.10 (antibody, human IgG1, kappa, V domains shown, Human-murine chimeric IgG1, kappa) VH: QVQLQQSGPELVKPGASVKISCKASGYEFSSIWMNWVKQRPGEGLEWIGRIFPGDGEINYNEKFKGKATLTADRSSTTAYMQLSSLTSEDSAVYFCAGWRIYYGTYGAMDYWGQGTSVTVSS VL: DIQMTQITSSLSASLGDRVTISCRASQDIGNYLNWYQQKPDGTVKLLIYYTSRLHSGVPSRFSGSGSRTDYSLTISNLQQEDIATYFCQQGNTLPWTFGGGTKLEIKR
0.24

All figures here come from patent US20240084003A1.
